Give measured pEC50 for each item. Keep answers brief.
Tested on: Human RSV-A (“Long” strain)
Assay: RSV-A assay (CPE, ATPlite readout in Hep-2 cells)
Format: cell-based
Conditions: human respiratory syncytial virus, 120 h; Hep-2 cells, MOI 0.1, 5-day incubation, ATPlite; read-out: Human RSV-A (“Long” strain) EC50
pEC50: −log10 of the molar value.

Each compound below has a reported value. Please supply its pEC50.
1. COc1cc(C(=O)NC[C@](O)(c2cc3c(c(-c4ccc(F)cc4)n2)OC[C@@]3(n2ccnn2)C(F)(F)F)C(F)(F)F)ccc1OC1CC1
2. COc1cc(C(=O)NC[C@](O)(c2cc3c(c(-c4ccc(F)cc4)n2)OC[C@]3(C)c2cnn[nH]2)C(F)(F)F)cc2cccnc12
3. COc1cc(C(=O)NC[C@](O)(c2cc3c(c(-c4ccc(F)cc4)n2)OC[C@]3(C)n2cnnc2)C2CC2)cc2cccnc12
4. C[C@]1(c2cc[nH]n2)COc2c1cc([C@@](O)(CNC(=O)c1cc(OC3CC3)c3ncccc3c1)C(F)(F)F)nc2-c1ccc(F)cc1

Found:
1. < 6.70
2. > 6.70
3. > 6.70
4. > 6.70

* * *

System: Human RSV-A (“Long” strain)
Assay: RSV-A assay (CPE, ATPlite readout in Hep-2 cells)
Type: cell-based
Conditions: human respiratory syncytial virus, 120 h; Hep-2 cells, MOI 0.1, 5-day incubation, ATPlite; read-out: Human RSV-A (“Long” strain) EC50
pEC50: −log10 of the molar value.
ATTRIBUTE_MEASURED: pEC50

Illustrative cases are given below, each with its answer.
Lookup: Quickly give me recorded pEC50 for COc1cc(C(=O)NC[C@](C)(O)c2cc3c(c(-c4ccc(F)cc4)n2)OC[C@]3(C)n2cnnc2)ccc1OC1CC1 [Example 13]
Found: > 6.70

Lookup: Complete the entry with pEC50 for COc1cc(C(=O)NC[C@](O)(c2cc3c(c(-c4ccc(F)cc4)n2)OC[C@]3(C)n2cnnc2)C2CC2)ccc1OC1CC1 [Example 15]
Found: > 6.70

Lookup: State its pEC50: COc1cc(C(=O)NC[C@](C)(O)c2cc3c(c(-c4ccc(F)cc4)n2)OC[C@]3(C)n2cnnc2)cc2cccnc12 [Example 14]
Found: < 6.70

Lookup: Look up and state reported pEC50 for C[C@]1(c2nc3ccccc3[nH]2)COc2c1cc([C@@](O)(CNC(=O)c1cc(OC3CC3)c3ncccc3c1)C(F)(F)F)nc2-c1ccc(F)cc1 [Example 21]
Found: > 6.70

Lookup: State its pEC50: COc1cc(C(=O)NC[C@](O)(c2cc3c(c(-c4ccc(F)cc4)n2)OC[C@]3(C)c2ncc[nH]2)C(F)(F)F)cc2cccnc12 [Example 20]
Found: > 6.70

Here are 6 compounds. What values of pEC50 were reported for them?
1. COc1cc(C(=O)NC[C@](O)(c2cc3c(c(-c4ccc(F)cc4)n2)OC[C@]3(C)n2ccnn2)C2CC2)ccc1OC1CC1 [Example 17]
2. COc1cc(C(=O)NC[C@](O)(c2cc3c(c(-c4ccc(F)cc4)n2)OC[C@]3(C)n2cccc2)C(F)(F)F)cc2cccnc12 [Example 10]
3. COc1cc(C(=O)NC[C@](O)(c2cc3c(c(-c4ccc(F)cc4)n2)OC[C@]3(C)n2ccnn2)C(F)(F)F)ccc1OC1CC1 [Example 11]
4. COc1cc(C(=O)NC[C@](O)(c2cc3c(c(-c4ccc(F)cc4)n2)OC[C@]3(C)n2cnnc2)C(F)(F)F)ccc1OC1CC1 [Example 6]
5. COc1cc(C(=O)NC[C@](O)(c2cc3c(c(-c4ccc(F)cc4)n2)OC[C@]3(C)n2ccnc2)C(F)(F)F)ccc1OC1CC1 [Example 9]
6. COc1cc(C(=O)NC[C@](O)(c2cc3c(c(-c4ccc(F)cc4)n2)OC[C@]3(C)n2cc(C3CC3)nn2)C(F)(F)F)ccc1OC1CC1 [Example 12]

Found:
> 6.70
< 6.70
> 6.70
> 6.70
> 6.70
> 6.70

Required: pEC50, one value per compound below.
1. COc1cc(C(=O)NC[C@](O)(c2cc3c(c(-c4ccc(F)cc4)n2)OC[C@]3(C)c2nnn[nH]2)C(F)(F)F)cc2cccnc12 [Example 19]
2. COc1cc(C(=O)NC[C@](O)(c2cc3c(c(-c4ccc(F)cc4)n2)OC[C@]3(C)n2ccnc2)C(F)(F)F)cc2cccnc12 [Example 8]

Found:
1. < 6.70
2. > 6.70

The measured values listed here are drawn from patent US11945824B2.
